Listed next: entries and their corresponding IC50.
target: dopamine D2 receptor (Rattus norvegicus, UniProt P61169); construct: from tissue; test: Inhibition of the binding of [3H]Spiperone to D2 receptors
Sequence (P61169 whole entry): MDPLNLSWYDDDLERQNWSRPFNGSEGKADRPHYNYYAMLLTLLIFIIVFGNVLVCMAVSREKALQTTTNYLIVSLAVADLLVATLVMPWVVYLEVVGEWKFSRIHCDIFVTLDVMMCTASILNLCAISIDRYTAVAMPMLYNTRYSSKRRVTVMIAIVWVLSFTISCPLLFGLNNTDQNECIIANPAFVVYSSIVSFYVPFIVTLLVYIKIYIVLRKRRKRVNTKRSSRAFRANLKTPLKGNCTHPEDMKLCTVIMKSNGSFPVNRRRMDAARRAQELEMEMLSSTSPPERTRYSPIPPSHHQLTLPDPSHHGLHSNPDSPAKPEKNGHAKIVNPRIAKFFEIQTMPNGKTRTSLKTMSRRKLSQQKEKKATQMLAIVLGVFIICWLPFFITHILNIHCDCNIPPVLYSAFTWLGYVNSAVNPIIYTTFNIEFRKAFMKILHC

input.smiles | value
COc1ccc(N2CCN(Cc3ccc4cc[nH]c4c3)CC2)cc1 | > 10 µM
Clc1ccc(N2CCN(Cc3ccc4cc[nH]c4c3)CC2)cc1 | > 10 µM
COc1ccc(N2CCN(Cc3ccc4[nH]ccc4c3)CC2)cc1 | > 10 µM

Here is another compound to look at.
What value of measured IC50 is listed for `Clc1ccc(N2CCN(Cc3ccc4[nH]ccc4c3)CC2)cc1` ?
1.7 µM

* * *

target: human cloned dopamine D4.2 receptors expressed in CHO-cells (Homo sapiens, UniProt P21917, DEL265-296); construct: expressed in transfected cells; host or cells: CHO cells; assay: Inhibition of binding of [3H]YM-09151-2 to D4.2 receptors
Sequence (P21917 with tags, fused parts or gaps DEL265-296): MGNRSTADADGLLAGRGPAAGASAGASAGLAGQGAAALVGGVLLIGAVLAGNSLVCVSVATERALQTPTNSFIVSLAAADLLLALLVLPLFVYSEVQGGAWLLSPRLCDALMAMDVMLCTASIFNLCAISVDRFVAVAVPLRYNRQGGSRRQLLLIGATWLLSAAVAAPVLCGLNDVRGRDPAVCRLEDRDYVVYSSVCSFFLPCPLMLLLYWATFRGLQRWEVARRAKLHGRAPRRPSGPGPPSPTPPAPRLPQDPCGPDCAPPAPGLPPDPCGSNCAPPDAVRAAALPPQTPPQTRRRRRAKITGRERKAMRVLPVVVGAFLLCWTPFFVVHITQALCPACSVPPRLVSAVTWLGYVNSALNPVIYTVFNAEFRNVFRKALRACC
observation.type: log10(IC50) (log10 of the value in nM)
Lab note - IC50 converted to log10 from values in nM.

Example compounds with recorded log10(IC50):
input.smiles | value
Clc1ccc(N2CCN(Cc3ccc4[nH]ccc4c3)CC2)cc1 | 0.88
COc1ccc(N2CCN(Cc3ccc4cc[nH]c4c3)CC2)cc1 | 0.96
c1ccc(N2CCN(Cc3ccc4[nH]ccc4c3)CC2)cc1 | 1.49
Clc1ccc(C2=CCN(Cc3ccc4[nH]ccc4c3)CC2)cc1 | 0.15

Below: the item to evaluate.
Which log10(IC50) value is on record for `COc1ccc(N2CCN(Cc3ccc4[nH]ccc4c3)CC2)cc1` ?
1.40
